tested on: 994946-033-R-J1-PDC complex spheroid viability; experiment: Anticancer human tumor 994946-033-R-J1-PDC patient-derived melanoma cell line growth inhibition [POLQ]; settings: curve of first compound; second compound 0.1 µM;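 also: spheroids exposed to drugs for 7 days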
pIC50: −log10 of the molar value.
measurement label: pIC50

Give its pIC50 value. Item: COc1cccc2c1C(=O)c1c(O)c3c(c(O)c1C2=O)CC(O)(C(=O)CO)CC3OC1CC(N)C(O)C(C)O1 (centres undefined) + Cc1cccc(N(C)C(=O)C2C(O)CCN2c2nc(C)cc(C(F)(F)F)c2C#N)c1
> 7.50

Request the reported pIC50 associated with Cn1ncnc1[C@H]1c2n[nH]c(=O)c3cc(F)cc(c23)N[C@@H]1c1ccc(F)cc1 + Nc1ccc(C#CCN(C(=O)Cc2ncc(C(F)(F)F)cc2C(F)(F)F)c2ccc(F)cc2)nn1
< 7.00

Please look up its pIC50: CC(=O)O[C@H]1C(=O)[C@@]2(C)[C@H]([C@H](OC(=O)c3ccccc3)[C@]3(O)C[C@H](OC(=O)[C@H](O)[C@@H](NC(=O)c4ccccc4)c4ccccc4)C(C)=C1C3(C)C)[C@]1(OC(C)=O)CO[C@@H]1C[C@@H]2O + COC1C(OC(N)=O)C(O)C(Oc2ccc3c(O)c(NC(=O)c4ccc(O)c(CC=C(C)C)c4)c(=O)oc3c2C)OC1(C)C
> 8.02

Need pIC50 of CCCS(=O)(=O)Nc1ccc(F)c(C(=O)c2c[nH]c3ncc(-c4ccc(Cl)cc4)cc23)c1F + COC1C(OC(N)=O)C(O)C(Oc2ccc3c(O)c(NC(=O)c4ccc(O)c(CC=C(C)C)c4)c(=O)oc3c2C)OC1(C)C , thanks.
5.22

Quick one: pIC50 for CNCc1ccc(-c2[nH]c3cc(F)cc4c3c2CCNC4=O)cc1 + COC1C(OC(N)=O)C(O)C(Oc2ccc3c(O)c(NC(=O)c4ccc(O)c(CC=C(C)C)c4)c(=O)oc3c2C)OC1(C)C ?
< 5.00

Fill in: pIC50 of C=CC(=O)N1CCN(c2nc(=O)n(-c3c(C)ccnc3C(C)C)c3nc(-c4c(O)cccc4F)c(F)cc23)C(C)C1 (centres undefined) + Cc1cccc(N(C)C(=O)C2C(O)CCN2c2nc(C)cc(C(F)(F)F)c2C#N)c1 is ___
< 5.00

Given the entry C=CCn1c(=O)c2cnc(Nc3ccc(N4CCN(C)CC4)cc3)nc2n1-c1cccc(C(C)(C)O)n1 + Nc1ccc(C#CCN(C(=O)Cc2ncc(C(F)(F)F)cc2C(F)(F)F)c2ccc(F)cc2)nn1 , report its measured pIC50.
6.35

Bench note: what pIC50 did CC1COCCN1c1cc(C2(O)CC3CCC(C2)O3)c2cnn(-c3ccn[nH]3)c2n1 (centres undefined) + Cc1cccc(N(C)C(=O)C2C(O)CCN2c2nc(C)cc(C(F)(F)F)c2C#N)c1 show?
7.42

Quick one: pIC50 for Cn1ncnc1[C@H]1c2n[nH]c(=O)c3cc(F)cc(c23)N[C@@H]1c1ccc(F)cc1 + COC1C(OC(N)=O)C(O)C(Oc2ccc3c(O)c(NC(=O)c4ccc(O)c(CC=C(C)C)c4)c(=O)oc3c2C)OC1(C)C ?
< 7.00
